Data provenance: PubChem BioAssay (NCATS)

Assay: qHTS assay for environmental chemicals that activate the Aryl hydrocarbon Receptor (AhR) signaling pathway (AID 651777); note: % of control where 0% means no effect; nearly all actives have a fitted effect of over 15% in size
Settings: 1A2-DRE human hepatoma cells, luciferase, 24 h; hits give high values
Source text: National Center for Advancing Translational Sciences [NCATS] NIH Chemical Genomics Center [NCGC] U.S. Environmental Protection Agency [EPA] National Institutes of Environmental Health Sciences [NIEHS] National Toxicology Program [NTP] The Aryl hydrocarbon Receptor (AhR) plays a critical role in the development of cancer or neoplasm and its formation is most likely due to genetic mutations and the influence of environment. […]
Results filed as inconclusive are left out.
property label: activation (%)

> print(dat)
                                   compound  property.label  quantitative.readout
1  CC(=O)OC(C)(C)C1CC=C(C)CC1 (configuration not stated)      activation                 -2.57
2              Cl[Si](Cl)(c1ccccc1)c1ccccc1      activation                 -1.05
3                    c1ccc2c(c1)Cc1ccccc1-2      activation                  1.34
4                       Cc1cc(C)c(N)c(Cl)c1      activation                 -1.79
5  CC1COCc2cc3c(cc21)C(C)(C)C(C)C3(C)C (configuration not stated)      activation                  1.13
6                  FC(F)(F)c1ccc(Cl)c(Cl)c1      activation                  3.72
7                C[Si](Cl)(Cl)[Si](C)(Cl)Cl      activation                 0.351
